Sourced from PubChem BioAssay (NCI)

Provide the recorded growth for the entries that follow.
- Tested on: UACC-62 melanoma
- TEST_NAME: NCI-60 one-dose screen, 48 h (100 = growth as untreated, 0 = no growth, -100 = all killed)
- PROTOCOL_CONDITIONS: 10 µM unless noted
The panel holds about 83,000 compounds, 20% with a hit somewhere; the sample as a whole holds those more often.
Give your result in % as a bare value.

Task: Please report the measured growth for "Nc1cc(-c2c[nH]c3ccccc23)nc2cc(-c3c[nH]c4ccccc34)nn12"
Output: 87.5

Task: Please report the measured growth for "N#Cc1c(-c2ccc(Cl)cc2)nc(SCc2ccc([N+](=O)[O-])cc2)nc1N1CCNCC1"
Output: 12.5

Task: Please report the measured growth for "O=C(O)CCCCCN1C(=O)/C(=C/c2ccc(O)c(O)c2)SC1=S"
Output: 96.8

Task: Please report the measured growth for "CCOC(=O)c1c(Nc2ccccc2)nn2c(N)c(C#N)c(-c3ccccc3)nc12"
Output: 83.4

Task: Please report the measured growth for COC(=O)C(Cc1ccccc1)NS(=O)(=O)/N=C1\NC(=O)NC1=C(Cl)Cl (stereo not given)
Output: 78.8

Task: Please report the measured growth for "CNC(=O)c1cc(-c2ccc(NC(=O)Nc3ccc(N4CCOCC4)c(C(F)(F)F)c3)cc2)nc2cccnc12"
Output: 64.3

Task: Please report the measured growth for COc1cc(-c2ccc3ncnc(NC(C)c4ccccc4)c3c2)cnc1OC (stereo not given)
Output: 63.4

Task: Please report the measured growth for "C=CCn1c(SCC(=O)c2ccc(Br)cc2)nnc1-c1c[nH]c2ccccc12"
Output: 83.1

Task: Please report the measured growth for COC(=O)C1CCCN(S(=O)(=O)/N=C2\NC(=O)NC2=C(Cl)Cl)C1 (stereo not given)
Output: 94

Task: Please report the measured growth for "COc1ccc(C(=O)/C=C/c2ccc(OCc3ccc(Cl)cc3)c(OC)c2)cc1OC"
Output: 52.6

* * *

- Test system: NCI/ADR-RES ovarian
- TEST_NAME: NCI-60 one-dose screen, 48 h
- PROTOCOL_CONDITIONS: 10 µM unless noted
About 83,000 compounds went through this panel and 20% of them were active in at least one assay; those are over-represented in the sample as a whole. Activity calls are given as the source filed them. Rule for the calls: active = growth percent below 10; inactive = the rest.
Output constraint: value belongs to active, inactive

Task: # lookup: test call for "N#Cc1nc(-c2ccccc2)oc1S(N)(=O)=O"
Output: inactive

Task: # lookup: test call for Cc1cc(C(NC(=O)CCCCCNc2cccc3c2C(=O)N(C2CCC(=O)NC2=O)C3=O)c2cccnc2)c(O)c2ncccc12 (stereo not given)
Output: inactive

Task: # lookup: test call for "Cc1cc2nc3c4cc(Cl)ccc4n(CC(=S)NCCN(C)C)c3nc2cc1C"
Output: active

Task: # lookup: test call for "CN(C)CCCOc1c2ccc(Cl)cc2nc2c1oc1ccccc12"
Output: active

Task: # lookup: test call for "COc1cc(/C=C/C(=O)c2ccc(C(F)(F)F)cc2)ccc1Oc1nc(NCCO)nc(N2CCOCC2)n1"
Output: inactive

Task: # lookup: test call for "CC(C)(C)Nc1nc2c(OCCc3ccccc3)cccn2c1-c1ccc(Cl)cc1"
Output: active

Task: # lookup: test call for "N#Cc1ccc(C(=O)CSc2nc(Nc3ccc(S(N)(=O)=O)cc3)c3ccccc3n2)cc1"
Output: inactive

Task: # lookup: test call for "OC1CCN(CCCOc2c3ccc(Cl)cc3nc3c2oc2ccccc23)CC1"
Output: active

Task: # lookup: test call for "C#Cc1nc(C2=C(C)C(=N\O)/C(=N/O)C2)cs1"
Output: inactive

Task: # lookup: test call for "N#Cc1c(-c2ccc(F)cc2)nc2c(C#N)c(Nc3ccccc3)nn2c1N"
Output: inactive
